- MEASUREMENT PROTOCOL: Plasma pharmacokinetics of immediate release and gastric resident dosage forms in pigs
- Type: in vivo, Yorkshire pigs
- EXPERIMENTAL CONTEXT: female, Yorkshire, pig, plasma, oral; immediate release formulation, pigs, post-dose; read-out: time of maximum plasma concentration (converted)
ASSAY METRIC: Tmax
Express the reported value numerically, then name its unit.

| MOL | Tmax |
| --- | --- |
| C[C@H]1CO[C@@H]2Cn3cc(C(=O)NCc4ccc(F)cc4F)c(=O)c(O)c3C(=O)N12 | 6 h |

API: the following record is the query input.
Query block: Name the reported Tmax value associated with the molecule C[C@@H]1CCO[C@H]2Cn3cc(C(=O)NCc4ccc(F)cc4F)c(=O)c(O)c3C(=O)N12
Result block: 6 h
